# credit: patent US8518965B2

experimental details: Solubility in solvents and buffers
Format: physicochemical
assay context: MeOH, 25 °C, organic solvent or mixture, MeOH; read-out: Solubility (mg/ml), 25° C.
recorded metric: solubility

Can you look up the measured solubility of c1ccc2c(Nc3ccc(Oc4ccc(Nc5c6ccccc6nc6ccccc56)cc4)cc3)c3ccccc3nc2c1 [Compound D11B] for me?
~1 mg/mL

----------
experimental details: Solubility in solvents and buffers
Assay type: physicochemical
assay context: CHCl3, 25 °C, organic solvent or mixture, CHCl3; read-out: Solubility (mg/ml), 25° C.
recorded metric: solubility (mg/mL)
Please respond with the number in mg/mL and leave the unit unwritten.

Can you look up the measured solubility of c1ccc2c(Nc3ccc(Oc4ccc(Nc5c6ccccc6nc6ccccc56)cc4)cc3)c3ccccc3nc2c1 [Compound D11B] for me?
0.12
